# tested-on: human TRPV1 receptor (hTRPV1) (Homo sapiens (Human))
# Sequence (Q8NER1 whole entry): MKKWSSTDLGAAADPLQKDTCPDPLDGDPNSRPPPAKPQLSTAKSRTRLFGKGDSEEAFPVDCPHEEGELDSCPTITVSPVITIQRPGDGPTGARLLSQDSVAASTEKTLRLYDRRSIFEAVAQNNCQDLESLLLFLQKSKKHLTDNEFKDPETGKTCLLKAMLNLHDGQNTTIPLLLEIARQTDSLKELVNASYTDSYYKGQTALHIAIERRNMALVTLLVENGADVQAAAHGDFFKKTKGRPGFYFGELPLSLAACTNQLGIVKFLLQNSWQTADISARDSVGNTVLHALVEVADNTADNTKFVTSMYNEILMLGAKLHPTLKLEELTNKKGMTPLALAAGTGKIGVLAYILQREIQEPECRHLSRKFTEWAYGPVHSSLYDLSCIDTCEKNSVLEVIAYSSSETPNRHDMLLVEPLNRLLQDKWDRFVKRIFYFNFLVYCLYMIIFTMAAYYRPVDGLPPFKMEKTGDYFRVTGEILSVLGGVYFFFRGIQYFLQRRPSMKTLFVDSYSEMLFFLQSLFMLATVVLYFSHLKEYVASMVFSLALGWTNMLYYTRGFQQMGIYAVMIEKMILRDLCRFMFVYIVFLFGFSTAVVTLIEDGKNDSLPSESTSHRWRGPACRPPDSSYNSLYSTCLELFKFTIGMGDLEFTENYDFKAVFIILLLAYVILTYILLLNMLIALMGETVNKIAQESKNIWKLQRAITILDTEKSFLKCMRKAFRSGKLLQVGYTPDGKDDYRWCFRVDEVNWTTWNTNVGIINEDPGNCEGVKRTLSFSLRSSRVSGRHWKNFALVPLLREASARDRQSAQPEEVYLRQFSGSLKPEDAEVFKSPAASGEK
# assay-notes: Acid activation assay (pH 5.0, FLIPR intracellular Ca2+)
# Assay type: cell-based
# condition-notes: 37.5 μM compound; percentage of the maximal pH 5.0-induced response remaining; read-out: hTRPV1 H+ (max % remain)
# Experimental: Dulbecco's modified Eagle's medium (DMEM) with 4.5 mg/mL D-glucose, fetal bovine serum, L-glutamine, and 2-morpholinoethanesulfonic acid (MES) were purchased from Sigma-Aldrich Co. (St. Louis, Mo.). […] The functional activity of compounds at the TRPV1 receptor was determined by measurement of intracellular Ca^2+ levels ([Ca^2+]i) using the Fluorescence Imaging Plate Reader (FLIPR)^TETRA®. […]
readout-label: remaining activity at 37.5 µM (%)
Answers are plain numbers, in %.

// worked examples, remaining activity at 37.5 µM included
{"given-smiles": "CS(=O)(=O)Nc1ccc(CNC(=O)N[C@@H]2CC(CF)(CF)Oc3c(F)cc(F)cc32)cc1F", "u": "%", "obs-value": 79}
{"given-smiles": "CC1(C)C[C@@H](NC(=O)NCc2ccc(NS(C)(=O)=O)c(F)c2)c2ccc(Cl)cc2O1", "u": "%", "obs-value": 70}
{"given-smiles": "CS(=O)(=O)Nc1ccc(CNC(=O)N[C@@H]2CCc3cc(F)ccc32)cc1F", "u": "%", "obs-value": 91}
{"given-smiles": "CS(=O)(=O)Nc1ccc(CNC(=O)N[C@@H]2CCOc3c2cccc3C(F)(F)F)cc1F", "u": "%", "obs-value": 77}

Could you now consider this next compound?
Would you mind telling me what remaining activity at 37.5 µM value was observed for CS(=O)(=O)Nc1ccc(CNC(=O)N[C@@H]2CC(CF)(CF)Oc3c2ccc(Cl)c3F)cc1F ?
60
